Values were extracted from PubChem BioAssay (NCI).

- Tested on: UACC-62 melanoma
- Protocol Summary: NCI tumour cell line growth inhibition, 48 h
In this section, each of the compounds is paired with its reported GI50.

Example results:
Compound	GI50
COc1cc2cc(Oc3ccc(NC(=O)Nc4ccc(Cl)c(C(F)(F)F)c4)cc3)c(C)nc2cc1OC	1.24 µM
Cc1cc(C)n(C(=O)c2nn(-c3ccc(Cl)cc3)cc2O)n1	3.46 µM
CC1SC(c2c(Cl)cccc2Cl)N(NC(=O)C(O)c2ccccc2)C1=O (configuration not stated)	50.2 µM

Give reported GI50 for "CC(=O)c1cc2c(c3ccsc13)-c1ccccc1CC2" (UACC-62 melanoma)
7.71 µM

Provide GI50, system UACC-62 melanoma, entry COc1cc(C2=NN(c3ccc(S(N)(=O)=O)cc3)C(c3ccc(Cl)cc3)C2)cc(OC)c1OC (configuration not stated)
4.12 µM

Using UACC-62 melanoma as the test system, report measured GI50 of "C/C1=C/C(=O)O[C@@H]2C[C@@H](CC[C@H](C)/C=C\C=C\CC1)O[C@@](OCCc1ccccc1)([C@@H]1CSC(=O)N1)C2" .
0.104 µM

Give UACC-62 melanoma GI50 for the following compound: "CC(=O)/C=C/C1=C(c2cccs2)c2ccccc2CC1"
17.6 µM

Look up and report measured GI50 (UACC-62 melanoma) for the following compound: Cc1ccc(C2C3=C(N=c4s/c(=C/c5ccc(Br)cc5)c(=O)n42)c2ccc4ccccc4c2OCC3)cc1 (configuration not stated)
67.9 µM

Return reported GI50 for target or system UACC-62 melanoma, item "COc1ccc(/C=C/C(=O)c2cc3c(N)c(C(=O)Nc4ccccc4C)sc3nc2C)cc1" .
0.275 µM
